Ki by entry:
procedure.summary: Inhibition of Neisseria meningitidis alpha-1,4-GalT after 15 mins by Dixon plot analysis
quantity.name: Ki

>>> result("O=c1[nH]c(=O)n([C@@H]2O[C@H](COP(=O)(O)OP(=O)(O)O[C@H]3O[C@H](CO)[C@H](O)[C@H](O)[C@H]3O)[C@@H](O)[C@H]2O)cc1-c1ccco1")
"1.9 µM"
>>> result("O=c1[nH]c(=O)n([C@@H]2O[C@H](COP(=O)(O)OP(=O)(O)O[C@H]3O[C@H](CO)[C@H](O)[C@H](O)[C@H]3O)[C@@H](O)[C@H]2O)cc1-c1ccccc1")
"6 µM"
>>> result("O=Cc1ccc(-c2cn([C@@H]3O[C@H](COP(=O)(O)OP(=O)(O)O[C@H]4O[C@H](CO)[C@H](O)[C@H](O)[C@H]4O)[C@@H](O)[C@H]3O)c(=O)[nH]c2=O)s1")
"0.45 µM"
>>> result("O=Cc1ccc(-c2cn([C@@H]3O[C@H](COP(=O)(O)OP(=O)(O)CC[C@H]4O[C@H](CO)[C@H](O)[C@H](O)[C@H]4O)[C@@H](O)[C@H]3O)c(=O)[nH]c2=O)s1")
"1.7 µM"

---

procedure.summary: Inhibition of human GTB after 15 mins by Dixon plot analysis
quantity.name: Ki (µM)

>>> quantitative_readout("O=Cc1ccc(-c2cn([C@@H]3O[C@H](COP(=O)(O)OP(=O)(O)CC[C@H]4O[C@H](CO)[C@H](O)[C@H](O)[C@H]4O)[C@@H](O)[C@H]3O)c(=O)[nH]c2=O)s1")
3.8
>>> quantitative_readout("O=Cc1ccc(-c2cn([C@@H]3O[C@H](COP(=O)(O)OP(=O)(O)O[C@H]4O[C@H](CO)[C@H](O)[C@H](O)[C@H]4O)[C@@H](O)[C@H]3O)c(=O)[nH]c2=O)s1")
2.4
>>> quantitative_readout("O=c1[nH]c(=O)n([C@@H]2O[C@H](COP(=O)(O)OP(=O)(O)O[C@H]3O[C@H](CO)[C@H](O)[C@H](O)[C@H]3O)[C@@H](O)[C@H]2O)cc1-c1ccccc1")
48
>>> quantitative_readout("O=c1[nH]c(=O)n([C@@H]2O[C@H](COP(=O)(O)OP(=O)(O)O[C@H]3O[C@H](CO)[C@H](O)[C@H](O)[C@H]3O)[C@@H](O)[C@H]2O)cc1-c1ccco1")
33

---

target.or.system: UniProtKB P08037
Sequence (P08037 whole entry): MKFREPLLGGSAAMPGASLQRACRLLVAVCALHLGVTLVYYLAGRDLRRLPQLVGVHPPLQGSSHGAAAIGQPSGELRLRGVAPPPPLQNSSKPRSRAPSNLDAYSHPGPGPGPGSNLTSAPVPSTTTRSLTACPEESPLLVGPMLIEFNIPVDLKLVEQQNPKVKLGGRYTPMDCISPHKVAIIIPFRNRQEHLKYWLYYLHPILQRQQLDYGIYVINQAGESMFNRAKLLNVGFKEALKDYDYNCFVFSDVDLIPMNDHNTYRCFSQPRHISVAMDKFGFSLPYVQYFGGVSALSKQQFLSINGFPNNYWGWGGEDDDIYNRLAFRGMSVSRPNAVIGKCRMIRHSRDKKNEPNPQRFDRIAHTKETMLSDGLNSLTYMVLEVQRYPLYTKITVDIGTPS
procedure.summary: Ratio of Km for the compound to Km for UDP-Gal in bovine beta-1,4-GalT
Ratio by entry:
quantity.name: Ratio

>>> quantitative_readout("O=Cc1ccc(-c2cn([C@@H]3O[C@H](COP(=O)(O)OP(=O)(O)O[C@H]4O[C@H](CO)[C@H](O)[C@H](O)[C@H]4O)[C@@H](O)[C@H]3O)c(=O)[nH]c2=O)s1")
2
>>> quantitative_readout("O=c1[nH]c(=O)n([C@@H]2O[C@H](COP(=O)(O)OP(=O)(O)O[C@H]3O[C@H](CO)[C@H](O)[C@H](O)[C@H]3O)[C@@H](O)[C@H]2O)cc1-c1ccco1")
2
>>> quantitative_readout("O=c1[nH]c(=O)n([C@@H]2O[C@H](COP(=O)(O)OP(=O)(O)O[C@H]3O[C@H](CO)[C@H](O)[C@H](O)[C@H]3O)[C@@H](O)[C@H]2O)cc1-c1ccccc1")
6
>>> quantitative_readout("COc1ccc(-c2cn([C@@H]3O[C@H](COP(=O)(O)OP(=O)(O)O[C@H]4O[C@H](CO)[C@H](O)[C@H](O)[C@H]4O)[C@@H](O)[C@H]3O)c(=O)[nH]c2=O)cc1")
3.3
